# reported Ki; entries follow
Biological target: Melatonin receptor type 1A (Homo sapiens, UniProt P48039)
Sequence (P48039 whole entry): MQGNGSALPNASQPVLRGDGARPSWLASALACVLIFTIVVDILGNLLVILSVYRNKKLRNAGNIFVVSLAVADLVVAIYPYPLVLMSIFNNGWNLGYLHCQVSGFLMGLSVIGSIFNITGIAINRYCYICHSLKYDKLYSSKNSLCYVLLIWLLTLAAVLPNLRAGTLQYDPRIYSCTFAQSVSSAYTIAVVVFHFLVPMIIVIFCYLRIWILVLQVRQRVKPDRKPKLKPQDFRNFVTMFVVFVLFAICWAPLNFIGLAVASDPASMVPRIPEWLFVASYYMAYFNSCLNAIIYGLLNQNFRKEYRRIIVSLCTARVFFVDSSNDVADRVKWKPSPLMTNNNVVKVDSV
Assay: Displacement of 2-[125I]iodoMLT from human MT1 receptor expressed in mouse NIH3T3 cells incubated for 90 mins by Cheng-Prusoff equation analysis
Format: cell-based
quantity: Ki

{"line notation": "COc1ccc2[nH]c(-c3cccc4ccccc34)c(CCNC(C)=O)c2c1", "recorded result": "15.5 nM"}
{"line notation": "COc1ccc2[nH]c(-c3cccc4[nH]ccc34)c(CCNC(C)=O)c2c1", "recorded result": "14.8 nM"}
{"line notation": "COc1ccc2[nH]c(-c3cccnc3)c(CCNC(C)=O)c2c1", "recorded result": "0.17 nM"}
{"line notation": "COc1ccc2[nH]c(Sc3ccccc3)c(CCNC(C)=O)c2c1", "recorded result": "0.977 nM"}
{"line notation": "COc1ccc2[nH]c(-c3ccc(-c4ccccc4)cc3)c(CCNC(C)=O)c2c1", "recorded result": "16.2 nM"}
{"line notation": "COc1ccc2[nH]c(-c3ccc4ccccc4c3)c(CCNC(C)=O)c2c1", "recorded result": "36.3 nM"}
{"line notation": "COc1ccc2[nH]c(-c3cccc4ncccc34)c(CCNC(C)=O)c2c1", "recorded result": "14.8 nM"}
{"line notation": "COc1ccc2[nH]c(Oc3ccccc3)c(CCNC(C)=O)c2c1", "recorded result": "11.5 nM"}
{"line notation": "COc1ccc2[nH]c(-c3ccccc3)c(CCNC(C)=O)c2c1", "recorded result": "0.0219 nM"}

----------
Target: UniProt:P48039
Experiment: Binding affinity to MT1 receptor (unknown origin) assessed as inhibition constant
pKi: −log10 of the molar value.

{"line notation": "CC(=O)NCCc1c(-c2cccc(O)c2)oc2ccc3c(c12)CCCO3", "pKi": 9.06}

----------
Molecular target: Melatonin receptor type 1B (Homo sapiens, UniProt P49286)
Sequence (P49286 whole entry): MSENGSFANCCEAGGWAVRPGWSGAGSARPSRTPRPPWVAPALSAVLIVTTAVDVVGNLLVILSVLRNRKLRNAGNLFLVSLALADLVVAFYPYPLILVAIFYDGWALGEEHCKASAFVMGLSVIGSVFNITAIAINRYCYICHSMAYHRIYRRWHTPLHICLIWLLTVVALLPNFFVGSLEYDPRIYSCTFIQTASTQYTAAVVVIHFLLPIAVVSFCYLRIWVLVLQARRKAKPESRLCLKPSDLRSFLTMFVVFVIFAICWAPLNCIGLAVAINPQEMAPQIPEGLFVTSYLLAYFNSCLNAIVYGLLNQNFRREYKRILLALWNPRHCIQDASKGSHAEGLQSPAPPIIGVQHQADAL
Experiment: Displacement of 2-[125I]iodoMLT from human MT2 receptor expressed in mouse NIH3T3 cells incubated for 90 mins by Cheng-Prusoff equation analysis
Assay type: cell-based
quantity: log10(Ki) (log10 of the value in pM)

{"line notation": "COc1ccc2[nH]c(-c3cccc4ncccc34)c(CCNC(C)=O)c2c1", "recorded result": 3.43}
{"line notation": "COc1ccc2[nH]c(-c3ccccc3)c(CCNC(C)=O)c2c1", "recorded result": 1.58}
{"line notation": "COc1ccc2[nH]c(-c3ccc(-c4ccccc4)cc3)c(CCNC(C)=O)c2c1", "recorded result": 3.70}
{"line notation": "COc1ccc2[nH]c(-c3cccc4[nH]ccc34)c(CCNC(C)=O)c2c1", "recorded result": 2.47}
{"line notation": "COc1ccc2[nH]c(Sc3ccccc3)c(CCNC(C)=O)c2c1", "recorded result": 1.80}
{"line notation": "COc1ccc2[nH]c(-c3ccc4ccccc4c3)c(CCNC(C)=O)c2c1", "recorded result": 3.04}
{"line notation": "COc1ccc2[nH]c(Oc3ccccc3)c(CCNC(C)=O)c2c1", "recorded result": 3.47}
{"line notation": "COc1ccc2[nH]c(-c3cccc4ccccc34)c(CCNC(C)=O)c2c1", "recorded result": 2.28}
{"line notation": "COc1ccc2[nH]c(-c3cccnc3)c(CCNC(C)=O)c2c1", "recorded result": 1.78}

----------
Target: Melatonin receptor type 1B (Homo sapiens, UniProt P49286)
Sequence (P49286 whole entry): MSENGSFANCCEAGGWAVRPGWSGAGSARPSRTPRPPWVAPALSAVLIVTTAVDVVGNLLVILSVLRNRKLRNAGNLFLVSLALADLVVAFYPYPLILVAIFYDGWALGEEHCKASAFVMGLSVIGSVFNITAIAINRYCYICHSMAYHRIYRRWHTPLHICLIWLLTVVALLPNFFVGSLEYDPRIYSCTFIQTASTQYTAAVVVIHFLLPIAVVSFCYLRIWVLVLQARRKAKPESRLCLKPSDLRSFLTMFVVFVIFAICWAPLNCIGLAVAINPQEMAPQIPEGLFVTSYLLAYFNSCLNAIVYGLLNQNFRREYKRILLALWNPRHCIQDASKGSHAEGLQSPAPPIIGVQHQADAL
Assay: Binding affinity to MT2 receptor (unknown origin) assessed as inhibition constant

{"line notation": "CC(=O)NCCc1c(-c2cccc(O)c2)oc2ccc3c(c12)CCCO3", "Ki, nM": 0.21}

----------
Molecular target: Melatonin receptor type 1A (Homo sapiens)
Assay: Displacement of 2-[125I]iodoMLT from human MT1 receptor stably expressed in CHO cells incubated for 60 mins by Cheng-Prusoff equation analysis
Type: cell-based

{"line notation": "COc1cccc(N(CCNC(C)=O)c2cccc(CO)c2)c1", "target under test": "Melatonin receptor type 1A (Homo sapiens)", "Ki": "> 100 nM"}
